assay: Test Example 1: plasma level after single intravenous, subcutaneous and oral administration; assay type: in vivo, male SD rats; details: rat, sc; subcutaneous, 1 mg/kg, fasted male SD rats, plasma
Structures can show the parent of a compound that is named as a salt.
measured property: Tmax (min)

# compound, measured property, assay value
measured = [
    ("CCCNC(CCC)Cc1cc2ccccc2o1 (single isomer, unassigned; (-)) [(−) isomer of the present compound (hydrochloride)]", "Tmax", 10.2),
]

###

assay: Test Example 1: plasma level after single intravenous, subcutaneous and oral administration; assay type: in vivo, male SD rats; settings: rat, sc; subcutaneous, 1 mg/kg, fasted male SD rats, plasma, trapezoidal method
Where a name gives a salt, the structure may show the parent alone.

# compound, result unit, AUC
measured = [
    ("CCCNC(CCC)Cc1cc2ccccc2o1 (single isomer, unassigned; (-)) [(−) isomer of the present compound (hydrochloride)]", "ng·h/mL", 231),
]

###

assay: Test Example 1: plasma level after single intravenous, subcutaneous and oral administration; type: in vivo, male SD rats; conditions: rat; oral, 10 mg/kg, fasted male SD rats, plasma, trapezoidal method
Where a name gives a salt, the structure may show the parent alone.

# compound, AUC
rows = [
    ("CCCNC(CCC)Cc1cc2ccccc2o1 (single isomer, unassigned; (-)) [(−) isomer of the present compound (hydrochloride)]", "65.4 ng·h/mL"),
]

###

test: Test Example 1: plasma level after single intravenous, subcutaneous and oral administration; assay type: in vivo, male SD rats; details: rat; intravenous, 0.5 mg/kg, fasted male SD rats, plasma
Where a name gives a salt, the structure may show the parent alone.

# compound, Cmax / ng/mL
data = [
    ("CCCNC(CCC)Cc1cc2ccccc2o1 (single isomer, unassigned; (-)) [(−) isomer of the present compound (hydrochloride)]", 94.1),
]

###

assay: Test Example 1: plasma level after single intravenous, subcutaneous and oral administration; type: in vivo, male SD rats; conditions: rat, sc; subcutaneous, 1 mg/kg, fasted male SD rats, plasma
Where a name gives a salt, the structure may show the parent alone.
measured property: Cmax (ng/mL)

# compound, assay value
measured = [
    ("CCCNC(CCC)Cc1cc2ccccc2o1 (single isomer, unassigned; (-)) [(−) isomer of the present compound (hydrochloride)]", 135),
]
